Measured values drawn from paper PMC5576363 for this set.

Molecular target: T1, LbuC2c2-WT (Leptotrichia buccalis, UniProt C7NBY4 1-1159)
T1 sequence: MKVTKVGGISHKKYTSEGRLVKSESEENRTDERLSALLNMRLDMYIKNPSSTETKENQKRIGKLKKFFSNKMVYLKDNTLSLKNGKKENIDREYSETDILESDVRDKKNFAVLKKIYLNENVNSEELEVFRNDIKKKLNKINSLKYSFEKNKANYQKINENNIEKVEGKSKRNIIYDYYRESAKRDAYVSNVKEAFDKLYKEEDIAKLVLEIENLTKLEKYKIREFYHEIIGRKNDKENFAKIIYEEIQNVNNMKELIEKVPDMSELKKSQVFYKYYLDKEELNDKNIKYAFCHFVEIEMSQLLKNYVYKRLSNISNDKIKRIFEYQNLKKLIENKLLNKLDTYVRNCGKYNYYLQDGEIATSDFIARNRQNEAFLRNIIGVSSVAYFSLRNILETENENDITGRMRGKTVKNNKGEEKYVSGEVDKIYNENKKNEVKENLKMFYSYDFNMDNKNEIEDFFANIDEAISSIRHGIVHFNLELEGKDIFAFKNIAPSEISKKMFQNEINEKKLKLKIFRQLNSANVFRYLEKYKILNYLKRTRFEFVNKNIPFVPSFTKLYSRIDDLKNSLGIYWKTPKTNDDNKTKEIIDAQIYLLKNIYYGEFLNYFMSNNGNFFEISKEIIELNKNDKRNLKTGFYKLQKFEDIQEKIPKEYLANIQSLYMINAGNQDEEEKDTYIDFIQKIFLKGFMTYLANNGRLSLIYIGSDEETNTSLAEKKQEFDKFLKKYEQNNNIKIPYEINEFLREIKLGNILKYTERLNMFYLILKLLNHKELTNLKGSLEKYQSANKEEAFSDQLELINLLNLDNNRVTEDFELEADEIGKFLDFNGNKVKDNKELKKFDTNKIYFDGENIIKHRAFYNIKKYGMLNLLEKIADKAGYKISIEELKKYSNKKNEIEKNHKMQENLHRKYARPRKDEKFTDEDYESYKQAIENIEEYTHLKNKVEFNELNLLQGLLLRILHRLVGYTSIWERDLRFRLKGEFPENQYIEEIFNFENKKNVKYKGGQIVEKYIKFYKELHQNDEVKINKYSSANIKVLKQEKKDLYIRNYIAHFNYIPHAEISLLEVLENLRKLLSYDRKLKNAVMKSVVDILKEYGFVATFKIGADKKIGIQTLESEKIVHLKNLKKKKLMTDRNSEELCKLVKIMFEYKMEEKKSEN
Assay: filter binding
Endpoint name: pKd
Remember the convention: pKd equals -log10 of concentration in molar.

Binder	pKd
mature crRNA-A_GG (crLbu_A_GG_AES432) (structured_RNA) RNA: GGCCACCCCAAAAAUGAAGGGGACUAAAACAGGGGCAGAGAUGAUGACCCU	7.57

Attention now turns to another entry.
Quick one: pKd for mature crRNA-A_GA (crLbu_A_mature_GA_SCK340) (structured_RNA) RNA: GACCACCCCAAAAAUGAAGGGGACUAAAACAGGGGCAGAGAUGAUGACCCU ?
8.33
